Overview of reported inhibition across a group of compounds:
Target: Nitric oxide synthase, inducible (Mus musculus)
Sequence (whole entry): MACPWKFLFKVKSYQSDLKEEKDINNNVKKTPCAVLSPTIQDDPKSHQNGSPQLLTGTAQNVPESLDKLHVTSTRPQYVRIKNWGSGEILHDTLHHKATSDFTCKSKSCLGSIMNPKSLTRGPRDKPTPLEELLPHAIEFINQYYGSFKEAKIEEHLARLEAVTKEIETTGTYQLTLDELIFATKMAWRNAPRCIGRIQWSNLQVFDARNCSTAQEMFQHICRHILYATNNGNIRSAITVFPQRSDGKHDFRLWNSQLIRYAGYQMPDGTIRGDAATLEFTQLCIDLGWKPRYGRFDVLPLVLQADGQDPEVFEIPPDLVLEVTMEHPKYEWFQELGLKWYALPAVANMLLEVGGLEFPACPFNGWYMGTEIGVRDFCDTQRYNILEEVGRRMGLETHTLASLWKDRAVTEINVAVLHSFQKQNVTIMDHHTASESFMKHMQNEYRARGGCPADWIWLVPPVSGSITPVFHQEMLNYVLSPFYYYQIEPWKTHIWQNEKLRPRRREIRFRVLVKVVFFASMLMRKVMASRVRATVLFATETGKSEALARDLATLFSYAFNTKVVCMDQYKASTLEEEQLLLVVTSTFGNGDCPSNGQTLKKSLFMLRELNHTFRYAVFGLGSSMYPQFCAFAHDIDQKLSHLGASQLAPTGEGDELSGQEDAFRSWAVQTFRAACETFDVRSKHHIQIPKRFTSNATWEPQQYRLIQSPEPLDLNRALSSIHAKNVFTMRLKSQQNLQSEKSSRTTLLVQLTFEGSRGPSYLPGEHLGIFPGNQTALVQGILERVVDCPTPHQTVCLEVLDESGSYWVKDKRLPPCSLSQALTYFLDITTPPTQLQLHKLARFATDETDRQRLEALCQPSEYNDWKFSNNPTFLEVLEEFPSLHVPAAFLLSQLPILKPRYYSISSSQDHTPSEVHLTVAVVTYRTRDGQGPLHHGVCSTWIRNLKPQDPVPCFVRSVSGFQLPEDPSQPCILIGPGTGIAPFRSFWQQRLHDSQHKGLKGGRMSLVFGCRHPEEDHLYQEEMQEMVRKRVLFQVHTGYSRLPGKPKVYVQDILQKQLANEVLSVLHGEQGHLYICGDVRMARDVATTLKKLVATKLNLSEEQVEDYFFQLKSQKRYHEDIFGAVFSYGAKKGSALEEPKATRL
Assay: Inhibition of mouse recombinant iNOS at 500 uM to 1 mM
QUANTITY: inhibition

{"columns": ["SMILES STRUCTURE", "STUDY TARGET", "OBSERVED"],
 "data": [
  ["Cn1nc(Br)c2cccc([N+](=O)[O-])c21", "Nitric oxide synthase, inducible (Mus musculus)", "15%"],
  ["c1cc(-c2nnn[nH]2)c2[nH]ncc2c1", "Nitric oxide synthase, inducible (Mus musculus)", "5%"],
  ["O=S(=O)(Oc1cccc2cn[nH]c12)C(F)(F)F", "Nitric oxide synthase, inducible (Mus musculus)", "35%"],
  ["C#Cc1cccc2cn[nH]c12", "Nitric oxide synthase, inducible (Mus musculus)", "15%"],
  ["NC(=O)c1cccc2c(Br)n[nH]c12", "Nitric oxide synthase, inducible (Mus musculus)", "15%"],
  ["O=C(O)c1cccc2cn[nH]c12", "Nitric oxide synthase, inducible (Mus musculus)", "20%"],
  ["c1cc(-c2cnn[nH]2)c2[nH]ncc2c1", "Nitric oxide synthase, inducible (Mus musculus)", "20%"]
]}
